measurement-context: in isobutanol, 303.15 K

# compound, solubility (mole fraction)
records = [
    ("O=[N+]([O-])c1cccc2ccccc12", 0.0306),
]

----------
measurement-context: in isopropanol, 288.15 K

# compound, solubility (mole fraction)
rows = [
    ("O=[N+]([O-])c1cccc2ccccc12", 0.0123),
]

----------
measurement-context: in acetone, 288.15 K

# compound, solubility (mole fraction)
measured = [
    ("O=[N+]([O-])c1cccc2ccccc12", 0.277),
]

----------
measurement-context: in isopropanol, 283.15 K

# compound, solubility (mole fraction)
records = [
    ("O=[N+]([O-])c1cccc2ccccc12", 0.00957),
]

----------
measurement-context: in ethyl acetate, 283.15 K

# compound, solubility (mole fraction)
data = [
    ("O=[N+]([O-])c1cccc2ccccc12", 0.213),
]

----------
measurement-context: in methanol, 298.15 K
property-label: solubility (mole fraction)

# compound, numeric-value
rows = [
    ("O=[N+]([O-])c1cccc2ccccc12", 0.0204),
]

----------
measurement-context: in n-propanol, 278.15 K

# compound, solubility (mole fraction)
records = [
    ("O=[N+]([O-])c1cccc2ccccc12", 0.0118),
]

----------
measurement-context: in methyl acetate, 278.15 K
property-label: solubility (mole fraction)

# compound, numeric-value
data = [
    ("O=[N+]([O-])c1cccc2ccccc12", 0.172),
]

----------
measurement-context: in ethanol, 303.15 K

# compound, solubility (mole fraction)
measured = [
    ("O=[N+]([O-])c1cccc2ccccc12", 0.0366),
]

----------
measurement-context: in cyclohexane, 293.15 K
property-label: solubility (mole fraction)

# compound, numeric-value
rows = [
    ("O=[N+]([O-])c1cccc2ccccc12", 0.0177),
]

----------
measurement-context: in isopropanol, 303.15 K

# compound, solubility (mole fraction)
measured = [
    ("O=[N+]([O-])c1cccc2ccccc12", 0.0301),
]

----------
measurement-context: in cyclohexane, 283.15 K

# compound, solubility (mole fraction)
measured = [
    ("O=[N+]([O-])c1cccc2ccccc12", 0.0104),
]

----------
measurement-context: in n-butanol, 273.15 K
property-label: solubility (mole fraction)

# compound, property-label, result
rows = [
    ("O=[N+]([O-])c1cccc2ccccc12", "solubility (mole fraction)", 0.0111),
]

----------
measurement-context: in isopropanol, 278.15 K
property-label: solubility (mole fraction)

# compound, result
records = [
    ("O=[N+]([O-])c1cccc2ccccc12", 0.00782),
]

----------
measurement-context: in isobutanol, 283.15 K
property-label: solubility (mole fraction)

# compound, result
rows = [
    ("O=[N+]([O-])c1cccc2ccccc12", 0.00962),
]

----------
measurement-context: in acetone, 303.15 K
property-label: solubility (mole fraction)

# compound, numeric-value
rows = [
    ("O=[N+]([O-])c1cccc2ccccc12", 0.508),
]

----------
measurement-context: in methanol, 293.15 K

# compound, solubility (mole fraction)
data = [
    ("O=[N+]([O-])c1cccc2ccccc12", 0.0155),
]

----------
measurement-context: in acetone, 293.15 K

# compound, solubility (mole fraction)
measured = [
    ("O=[N+]([O-])c1cccc2ccccc12", 0.344),
]

----------
measurement-context: in cyclohexane, 278.15 K
property-label: solubility (mole fraction)

# compound, numeric-value
data = [
    ("O=[N+]([O-])c1cccc2ccccc12", 0.00743),
]
